Test system: HepG2
Assay: cytotoxicity call (relative viability < 0.9)
Details: 10 µM
The campaign covered roughly 39,000 compounds. About 3,300 (8.5%) were called active. The sample holds actives, similar compounds and a random draw of the others, so the mix is not that of the screen.
Answer with one of the outcomes active, inactive

Observe how each entry below is paired with its result.
GET /call?item= C[C@@H]1CCCCO[C@@H](CN(C)C(=O)Nc2ccc(F)cc2)[C@@H](C)CN([C@@H](C)CO)C(=O)c2cc(NC(=O)NC3CCCCC3)ccc2O1 returns the recorded outcome of this test. active

Continue with Cc1noc(C)c1NC(=O)N(C)C[C@H]1OCCCC[C@@H](C)Oc2ccc(NC(=O)NC3CCCCC3)cc2C(=O)N([C@@H](C)CO)C[C@H]1C inactive

Continue with C[C@@H]1CCCCO[C@@H](CN(C)CC2CC2)[C@@H](C)CN([C@H](C)CO)C(=O)c2cc(NC(=O)Nc3ccccc3)ccc2O1 inactive

***
GET /call?item= O=C(C[C@H]1CC[C@H](NC(=O)Cc2ccccn2)[C@H](CO)O1)NCCc1ccncc1 returns the recorded outcome of this test. inactive

====

Tested on: HepG2
Assay: cytotoxicity call (relative viability < 0.9)
Conditions: 10 µM
About 3,300 (8.5%) of roughly 39,000 compounds were called active. The list comes from a sample in which actives are over-represented; it also holds close analogues and randomly drawn compounds.
parameter_measured: cytotoxicity call

Given the molecule C[C@@H]1CN([C@@H](C)CO)C(=O)Cc2cc(NC(=O)Nc3ccc(C(F)(F)F)cc3)ccc2O[C@@H]1CN(C)C(=O)Nc1ccccc1 , what is its reported cytotoxicity call? active

Continue with Cc1ccc(S(=O)(=O)Nc2ccc3c(c2)C(=O)N([C@H](C)CO)C[C@H](C)[C@@H](CN(C)S(=O)(=O)c2ccc(Cl)cc2)OCCCC[C@@H](C)O3)cc1 active

Continue with C[C@@H]1CCCCO[C@H](CN(C)S(C)(=O)=O)[C@@H](C)CN([C@H](C)CO)C(=O)c2cc(NS(=O)(=O)c3cn(C)cn3)ccc2O1 inactive

Continue with Cc1ccc(S(=O)(=O)N(C)C[C@@H]2OCCCC[C@H](C)Oc3ccc(NS(=O)(=O)c4ccc(Cl)cc4)cc3C(=O)N([C@H](C)CO)C[C@H]2C)cc1 active

Continue with Cc1ccc(S(=O)(=O)N(C)C[C@@H]2OCCCC[C@@H](C)Oc3ccc(NS(=O)(=O)c4ccc(Cl)cc4)cc3C(=O)N([C@@H](C)CO)C[C@@H]2C)cc1 inactive

Continue with Cc1ccc(S(=O)(=O)Nc2ccc3c(c2)C(=O)N([C@H](C)CO)C[C@H](C)[C@H](CN(C)S(=O)(=O)c2ccc(Cl)cc2)OCCCC[C@H](C)O3)cc1 inactive

Continue with Cc1ccc(S(=O)(=O)N(C)C[C@H]2OCCCC[C@@H](C)Oc3ccc(NS(=O)(=O)c4ccc(Cl)cc4)cc3C(=O)N([C@H](C)CO)C[C@@H]2C)cc1 inactive

Continue with C[C@@H]1CN([C@H](C)CO)C(=O)c2cccc(NS(C)(=O)=O)c2O[C@@H]1CN(C)S(=O)(=O)c1cccs1 inactive

***
Given the molecule CC(=O)NCCCC[C@@H]1NC(=O)[C@@H]2C[C@H](C(=O)NCCCCCNC(=O)CS)[C@H](c3cccc(OCCO)c3)N2C1=O , what is its reported cytotoxicity call? inactive

Continue with CC[C@H](C)[C@H](N)C1=N[C@H](C(=O)N[C@@H](CC(C)C)C(=O)N[C@H](CCC(=O)O)C(=O)N[C@H](C(=O)N[C@H]2CCCCNC(=O)[C@H](CC(N)=O)NC(=O)[C@@H](CC(=O)O)NC(=O)[C@H](Cc3cnc[nH]3)NC(=O)[C@@H](Cc3ccccc3)NC(=O)[C@H]([C@@H](C)CC)NC(=O)[C@@H](CCCN)NC2=O)[C@@H](C)CC)CS1 inactive

Continue with C[C@H](CO)N1C[C@H](C)[C@H](CN(C)C(=O)Nc2ccccc2)Oc2ccc(NC(=O)Nc3ccc(C(F)(F)F)cc3)cc2CC1=O active
